assay: growth inhibition of S. aureus RN4220, primary screen, OD600 (AID 1259311); conditions: OD600, 16 h
Out of some 330,000 compounds screened, about 1,100 (0.33%) were called active. No stated cut-off is given here; in the data, active means inhibition above about 85%; inactive means the rest. The sample holds actives, similar compounds and a random draw of the others, so the mix is not that of the screen.
Select the matching outcome among True = active, False = inactive

Completed entries (count: 2):
O=C(CC(=O)NN=Cc1ccc(Cl)cc1Cl)NCc1ccccc1	False
Cc1ccc(NS(=O)(=O)c2cc([N+](=O)[O-])ccc2NN=Cc2sc(N3CCOCC3)nc2-c2ccccc2)c(C)c1	False

[ask] Please let me know the test result on file for CN1CCc2c(sc(N=Cc3cc(Cl)ccc3O)c2C#N)C1 .
[reply] False

[ask] Another compound to check: CC1CN(C(C)CO)C(=O)c2cccc(NC(=O)Nc3ccc(C(F)(F)F)cc3)c2OC1CN(C)C (stereo not drawn)
[reply] False

[ask] Another compound to check: Cn1ccc(=Nc2ccc(NC(=O)c3ccc(N=c4ccn(C)c5ccc([N+](=O)[O-])cc45)cc3)cc2)cc1
[reply] True

[ask] Another compound to check: O=S(=O)(NN=Cc1ccc(OC2CSC2)cc1)c1ccccc1
[reply] False

[ask] Another compound to check: COc1ccc(CN2CCC(=O)N(C(CO)CC(C)C)CC2)cc1 (stereo not drawn)
[reply] False
